Every entry's value here was drawn from the supplement of paper PMC9112550.

# Tested on: Escherichia coli TOP10;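 further: peptides expressed intracellularly from a pBAD plasmid library in pooled LB shake-flask culture, induced with 0.3% L-arabinose, DNA abundance read by NGS, three biological replicates, DESeq2 with apeglm shrinkage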
# experimental_protocol: shrunken log2 fold change of peptide-encoding DNA abundance (4.5 h post-induction vs induction); higher = less antimicrobial activity (less host growth inhibition)
# protocol_conditions: time post-induction: 4.5 h; library: site-saturation at positions 5, 18, 19, 20
Decide using shrunken log2 fold change: a value greater than or equal to -0.06 is Condition met, a smaller one is Condition not met.

# example entries with known answers
- item_sequence: "RRIRARPPRLPRPRPRPIVIPRP"
  category: "Condition not met"
- item_sequence: "RRIRNRPPRLPRPRPRPEVRPRP"
  category: "Condition met"
- item_sequence: "RRIRQRPPRLPRPRPRPQEEPRP"
  category: "Condition met"
- item_sequence: "RRIRTRPPRLPRPRPRPPPIPRP"
  category: "Condition met"
- item_sequence: "RRIRTRPPRLPRPRPRPPDVPRP"
  category: "Condition met"
- item_sequence: "RRIRMRPPRLPRPRPRPNKCPRP"
  category: "Condition met"
- item_sequence: "RRIRCRPPRLPRPRPRPADFPRP"
  category: "Condition met"
- item_sequence: "RRIRYRPPRLPRPRPRPIMPPRP"
  category: "Condition not met"

Query :: Quick check, shrunken log2 fold change >= -0.06? RRIRIRPPRLPRPRPRPVGHPRP
Result :: Condition met

Query :: Also check RRIRPRPPRLPRPRPRPEDTPRP
Result :: Condition met

Query :: Also check RRIRRRPPRLPRPRPRPYQLPRP
Result :: Condition not met

Query :: Also check RRIRERPPRLPRPRPRPQNYPRP
Result :: Condition not met

Query :: Also check RRIRERPPRLPRPRPRPRKGPRP
Result :: Condition met

Query :: Also check RRIRVRPPRLPRPRPRPNEQPRP
Result :: Condition not met

Query :: Also check RRIRCRPPRLPRPRPRPQYVPRP
Result :: Condition not met

Query :: Also check RRIRDRPPRLPRPRPRPRISPRP
Result :: Condition met
